- PROCEDURE TEXT: in vitro
- MEASUREMENT CONTEXT: mouse, hepatocytes
# maps each entry to its half-life
Provide the reading as a plain figure in h.

These recorded examples may help you get a feel for the data.
GIVEN SMILES	half-life, h
Cc1cc(-c2cnc3cc(-c4ccc(N5CCNCC5)cc4)ccn23)c2cc(F)ccc2n1	8.8
Cc1cc(-c2cnc3cc(-c4ccc(N5CCNCC5)cc4)ccn23)c2ccccc2n1	6.4

Qu. Record request: half-life value, item `Cc1cc(-c2cnc3cc(-c4ccc(N5CCNCC5)cc4)ccn23)c2cc(F)cc(F)c2n1`
Ans. 9.71

###

- Tested on: MDR1
- PROCEDURE TEXT: in vitro
- MEASUREMENT CONTEXT: dog, MDCK-MDR1
# maps each entry to its Papp B→A
Provide the reading as a plain figure in ×10⁻⁶ cm/s.

These recorded examples may help you get a feel for the data.
GIVEN SMILES	TARGET OR SYSTEM	RESULT UNIT	RESULT NUMBER
Cc1cc(-c2cnc3cc(-c4ccc(N5CCNCC5)cc4)ccn23)c2cc(F)cc(F)c2n1	MDR1	×10⁻⁶ cm/s	9.1
Cc1cc(-c2cnc3cc(-c4ccc(N5CCNCC5)cc4)ccn23)c2cc(F)ccc2n1	MDR1	×10⁻⁶ cm/s	8.4

Qu. Record request: Papp B→A value, item `Cc1cc(-c2cnc3cc(-c4ccc(N5CCNCC5)cc4)ccn23)c2ccccc2n1`
Ans. 10.8
